Provenance of the data: patent US20210155689A1

# Tgt: T1, LAG-3-hFc protein (human LAG-3 extracellular region with hFc tag) (human, UniProt P18627 23-450)
# T1 construct: also called hLAG-3-hFc; LAG-3 protein; not shown: human IgG Fc fragment (hFc) of the pCpC vector
# T1 sequence: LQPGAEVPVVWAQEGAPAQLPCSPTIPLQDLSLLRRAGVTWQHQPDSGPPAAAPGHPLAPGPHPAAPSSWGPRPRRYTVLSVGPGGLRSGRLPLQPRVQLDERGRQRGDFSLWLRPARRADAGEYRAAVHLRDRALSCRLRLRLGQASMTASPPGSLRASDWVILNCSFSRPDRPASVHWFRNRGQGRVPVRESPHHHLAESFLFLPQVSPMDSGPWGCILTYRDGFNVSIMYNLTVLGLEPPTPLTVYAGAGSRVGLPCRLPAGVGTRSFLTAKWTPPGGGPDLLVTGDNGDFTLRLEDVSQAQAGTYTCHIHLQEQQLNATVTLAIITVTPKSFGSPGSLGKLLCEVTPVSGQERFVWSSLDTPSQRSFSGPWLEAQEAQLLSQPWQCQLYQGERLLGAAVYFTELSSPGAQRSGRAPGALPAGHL
# Assay Summary: FACS, inhibition of LAG-3-hFc binding to MHC II on Raji cells, antibody 0.274 nM
Result Type: Inhibition rate (%)
Phrase the answer as number then unit, nothing more needed.

{"Binder": "409B11E12 mouse-human chimeric antibody (antibody, V domains shown, also called mAb104-409B11E12) VH: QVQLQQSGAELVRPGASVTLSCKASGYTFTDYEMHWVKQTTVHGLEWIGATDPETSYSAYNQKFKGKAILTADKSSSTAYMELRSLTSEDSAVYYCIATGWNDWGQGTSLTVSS VL: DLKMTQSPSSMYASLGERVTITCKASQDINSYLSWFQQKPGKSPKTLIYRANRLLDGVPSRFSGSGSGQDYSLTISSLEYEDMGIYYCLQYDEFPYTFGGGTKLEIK", "Result Type": "Inhibition rate (%)", "Result": "4.4%"}
{"Binder": "409D4E10 mouse-human chimeric antibody (antibody, V domains shown, also called mAb112-409D4E10) VH: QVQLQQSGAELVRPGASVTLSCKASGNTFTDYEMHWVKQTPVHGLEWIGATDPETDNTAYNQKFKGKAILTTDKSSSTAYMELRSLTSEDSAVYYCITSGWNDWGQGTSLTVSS VL: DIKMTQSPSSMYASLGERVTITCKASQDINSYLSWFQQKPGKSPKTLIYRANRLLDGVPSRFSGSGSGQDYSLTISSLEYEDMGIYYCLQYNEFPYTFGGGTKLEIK", "Result Type": "Inhibition rate (%)", "Result": "11.3%"}

We next turn to a different binder, shown below.
Suppose we examine the binder 405B8H3 mouse-human chimeric antibody (antibody, V domains shown, also called mAb103-405B8H3) VH: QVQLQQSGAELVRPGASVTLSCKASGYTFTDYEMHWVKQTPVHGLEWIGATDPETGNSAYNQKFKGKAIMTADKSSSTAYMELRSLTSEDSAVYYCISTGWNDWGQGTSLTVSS VL: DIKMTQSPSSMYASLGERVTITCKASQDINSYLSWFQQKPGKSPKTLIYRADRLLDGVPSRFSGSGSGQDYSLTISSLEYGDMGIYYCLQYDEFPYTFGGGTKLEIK ; what Inhibition rate (%) value has been reported?
4.3%
